experimental details: Cytotoxicity measured as % loss of cells after 60 min
Format: cell-based
experimental conditions: rat, 1 h
Item-by-item account of Loss of cells
The response must be a number in % with no trailing unit.

C#CCN(C)Cc1ccccc1.NC1C=C(c2ccccc2)CCC1 (stereo unspecified): 24
C#CCN(C)Cc1ccccc1.CN(C)C1C=C(c2ccccc2)CCC1 (stereo unspecified): 100
CN1CC=C(c2ccccc2)CC1: 12

Given item CN(C)C1C=C(c2ccccc2)CCC1 (stereo unspecified) , the value recorded as its Loss of cells is 100

Given item "C#CCN(C)Cc1ccccc1.CN1CC=C(c2ccccc2)CC1" , the value recorded as its Loss of cells is 6

Given item NC1C=C(c2ccccc2)CCC1 (stereo unspecified) , the value recorded as its Loss of cells is 28
